Experiment: Oral bioavailability in rat at 10 mg/kg
Assay type: ADME, organism-based
Conditions: in vivo
The following molecules are shown together with reported bioavailability values.
Give a bare numeral; the unit % is implied.

Inquiry: State its bioavailability for this molecule: `CC#C[C@@H](Cc1nnn[nH]1)c1ccc(OCc2ccc3scc(-c4ccc(OCC5(C)CS(=O)(=O)C5)cc4C)c3c2)cc1`
Reply text: 50.3

Inquiry: State its bioavailability for this molecule: `CC#C[C@@H](Cc1nnn[nH]1)c1ccc(OCc2ccc3scc(-c4ccccc4C)c3c2)cc1`
Reply text: 43.2

Inquiry: State its bioavailability for this molecule: `CC#C[C@@H](Cc1nnn[nH]1)c1ccc(OCc2ccc3sc(C(F)(F)F)c(-c4ccccc4C)c3c2)cc1`
Reply text: 82.1

Inquiry: State its bioavailability for this molecule: `CC#C[C@@H](Cc1nnn[nH]1)c1ccc(OCc2ccc3sc(Cl)c(-c4ccccc4C)c3c2)cc1`
Reply text: 72

Inquiry: State its bioavailability for this molecule: `CC#C[C@@H](Cc1nnn[nH]1)c1ccc(OCc2ccc3scc(-c4ccc(OCCCS(C)(=O)=O)cc4C)c3c2)cc1`
Reply text: 56.8

Inquiry: State its bioavailability for this molecule: `CC#C[C@@H](Cc1nnn[nH]1)c1ccc(OCc2ccc3sc(F)c(-c4ccccc4C)c3c2)cc1`
Reply text: 62.3

---

The following molecules are shown together with reported concentration at 160 min values.
Test: Plasma concentration in Sprague-Dawley rat at 10 mg/kg, po administered 40 mins prior to glucose-challenge measured at 160 mins post last dose during OGTT assay
Format: ADME, organism-based
Give a bare numeral; the unit µM is implied.

# example entries with known answers
- line_notation: "CC#C[C@@H](Cc1nnn[nH]1)c1ccc(OCc2ccc3sc(F)c(-c4ccccc4C)c3c2)cc1"
  measure_unit: "µM"
  concentration at 160 min: 3.74
- line_notation: "CC#C[C@@H](Cc1nnn[nH]1)c1ccc(OCc2ccc3scc(-c4ccccc4C)c3c2)cc1"
  measure_unit: "µM"
  concentration at 160 min: 1.85
- line_notation: "CC#C[C@@H](Cc1nnn[nH]1)c1ccc(OCc2ccc3sc(Cl)c(-c4ccccc4C)c3c2)cc1"
  measure_unit: "µM"
  concentration at 160 min: 8.09

# evaluate next
Inquiry: State its concentration at 160 min for this molecule: `CC#C[C@@H](Cc1nnn[nH]1)c1ccc(OCc2ccc3sc(C(F)(F)F)c(-c4ccccc4C)c3c2)cc1`
Reply text: 7.42

---

Assay: Plasma concentration in Sprague-Dawley rat at 10 mg/kg, po administered 40 mins prior to glucose-challenge measured at 35 mins post last dose during OGTT assay
Type: ADME, organism-based
parameter_measured: concentration at 35 min
Write down the value, and be sure its unit follows.

Inquiry: State its concentration at 35 min for this compound: `CC#C[C@@H](Cc1nnn[nH]1)c1ccc(OCc2ccc3sc(C(F)(F)F)c(-c4ccc(OCCOC)cc4C)c3c2)cc1`
Reply text: 5.66 µM

---

Experiment: Plasma concentration in Sprague-Dawley rat at 10 mg/kg, po administered 40 mins prior to glucose-challenge measured at 155 mins post last dose during OGTT assay
Format: ADME, organism-based
parameter_measured: concentration at 155 min (µM)
Give a bare numeral; the unit µM is implied.

Inquiry: State its concentration at 155 min for this compound: `CC#C[C@@H](Cc1nnn[nH]1)c1ccc(OCc2ccc3sc(C(F)(F)F)c(-c4ccc(OCCOC)cc4C)c3c2)cc1`
Reply text: 4.41

---

Assay: Plasma concentration in Sprague-Dawley rat at 1 mg/kg, po administered 40 mins prior to glucose-challenge measured at 160 mins post last dose during OGTT assay
Assay type: ADME, organism-based
parameter_measured: concentration at 160 min (nM)
Give a bare numeral; the unit nM is implied.

Inquiry: State its concentration at 160 min for this compound: `CC#C[C@@H](Cc1nnn[nH]1)c1ccc(OCc2ccc3scc(-c4ccccc4C)c3c2)cc1`
Reply text: 320

---

Experiment: Volume of distribution at steady state in rat at 10 mg/kg, po or 2 mg/kg, iv
Type: ADME, organism-based
Conditions: in vivo, read-out: Vdss
The following compounds are shown together with reported Vd values.
Give a bare numeral; the unit L/kg is implied.

# example entries with known answers
- line_notation: "CC#C[C@@H](Cc1nnn[nH]1)c1ccc(OCc2ccc3sc(C(F)(F)F)c(-c4ccccc4C)c3c2)cc1"
  parameter_measured: "Vd"
  reported: 1.1
- line_notation: "CC#C[C@@H](Cc1nnn[nH]1)c1ccc(OCc2ccc3scc(-c4ccc(OCCCS(C)(=O)=O)cc4C)c3c2)cc1"
  parameter_measured: "Vd"
  reported: 5.1

# evaluate next
Inquiry: State its Vd for this compound: `CC#C[C@@H](Cc1nnn[nH]1)c1ccc(OCc2ccc3sc(Cl)c(-c4ccccc4C)c3c2)cc1`
Reply text: 0.8

---

Assay: Cmax in rat at 10 mg/kg, po
Assay type: ADME, organism-based
Set-up: dose 10 mg/kg, route oral
Details: in vivo
parameter_measured: Cmax (ng/mL)
Give a bare numeral; the unit ng/mL is implied.

Inquiry: State its Cmax for this molecule: `CC#C[C@@H](Cc1nnn[nH]1)c1ccc(OCc2ccc3scc(-c4ccc(OCC5(C)CS(=O)(=O)C5)cc4C)c3c2)cc1`
Reply text: 356

Inquiry: State its Cmax for this molecule: `CC#C[C@@H](Cc1nnn[nH]1)c1ccc(OCc2ccc3sc(Cl)c(-c4ccccc4C)c3c2)cc1`
Reply text: 4220

---

Assay: Volume of distribution at steady state in rat at 10 mg/kg, po or 2 mg/kg, iv
Type: ADME, organism-based
Settings: in vivo, read-out: Vdss
The following compounds are shown together with reported Vd values.
Give a bare numeral; the unit L/kg is implied.

# example entries with known answers
- line_notation: "CC#C[C@@H](Cc1nnn[nH]1)c1ccc(OCc2ccc3scc(-c4ccccc4C)c3c2)cc1"
  measure_unit: "L/kg"
  reported: 1.5
- line_notation: "CC#C[C@@H](Cc1nnn[nH]1)c1ccc(OCc2ccc3scc(-c4ccc(OCC5(C)CS(=O)(=O)C5)cc4C)c3c2)cc1"
  measure_unit: "L/kg"
  reported: 5.9

# evaluate next
Inquiry: State its Vd for this compound: `CC#C[C@@H](Cc1nnn[nH]1)c1ccc(OCc2ccc3sc(F)c(-c4ccccc4C)c3c2)cc1`
Reply text: 2.2

---

Test: Cmax in rat at 10 mg/kg, po
Type: ADME, organism-based
Design: dose 10 mg/kg, route oral
Conditions: in vivo
The following compounds are shown together with reported Cmax values.
Give a bare numeral; the unit ng/mL is implied.

# example entries with known answers
- line_notation: "CC#C[C@@H](Cc1nnn[nH]1)c1ccc(OCc2ccc3scc(-c4ccc(OCCCS(C)(=O)=O)cc4C)c3c2)cc1"
  Cmax / ng/mL: 417
- line_notation: "CC#C[C@@H](Cc1nnn[nH]1)c1ccc(OCc2ccc3sc(F)c(-c4ccccc4C)c3c2)cc1"
  Cmax / ng/mL: 1590
- line_notation: "CC#C[C@@H](Cc1nnn[nH]1)c1ccc(OCc2ccc3sc(C(F)(F)F)c(-c4ccccc4C)c3c2)cc1"
  Cmax / ng/mL: 2520

# evaluate next
Inquiry: State its Cmax for this compound: `CC#C[C@@H](Cc1nnn[nH]1)c1ccc(OCc2ccc3scc(-c4ccccc4C)c3c2)cc1`
Reply text: 576
